// data source = PubChem BioAssay (NCI)

Tested on: T-47D breast
Experiment: NCI tumour cell line growth inhibition, 48 h; in the data active = GI50 below about 0.43 µM; inactive = the rest
// allowed return values: 1 for active, 0 for inactive

Request: How was `CCc1ccccc1-n1c(N)c(C#N)c(-c2ccc(OC)c(OC)c2)c(C#N)c1=O` classified in this test?
Response: 0

Request: How was `COc1ccc(-n2cc(-c3ccc(OC)c(OC)c3)nc2SCc2ccccc2)cc1Cl` classified in this test?
Response: 0

Request: How was `C=C=[CH][Sn]([c]1ccccc1)([c]1ccccc1)[c]1ccccc1` classified in this test?
Response: 0

Request: How was `CCOc1cc(/C=N\NC(=O)N/N=C/c2ccc(O)c(OCC)c2)ccc1O` classified in this test?
Response: 0

Request: How was `O=[N+]([O-])c1ccc(-c2ccccc2)c([As](=O)(O)O)c1` classified in this test?
Response: 0

Request: How was CSc1ccc(C2=NN(C(=O)c3ccc(N)cc3)C(c3ccc(F)cc3)C2)cc1 (configuration not stated) classified in this test?
Response: 0

Request: How was `Cc1ccc(-c2cc(/C=N/O)on2)cc1` classified in this test?
Response: 0

Request: How was `CCNCCNc1cc(-c2cccc(C(F)(F)F)c2)c(C#N)c2nc3ccccc3n12` classified in this test?
Response: 0

Request: How was Cc1cccnc1CNC1CC(NCc2ncccc2C)CC(NCc2ncccc2C)C1 (configuration not stated) classified in this test?
Response: 0

Request: How was `Brc1ccc(Br)nn1` classified in this test?
Response: 0

Request: How was C[C@@H](Oc1cc(-c2cnn(C3CC4(CCCNC4)C3)c2)cnc1N)c1c(Cl)ccc(F)c1Cl (some centres not stated) classified in this test?
Response: 0

Request: How was CCCCCCC1N=C(N)N=C(N)N1c1ccc(Cl)cc1 (configuration not stated) classified in this test?
Response: 0

Request: How was `COc1cccc(Nc2nccc(Nc3ccc4[nH]ncc4c3)n2)c1` classified in this test?
Response: 0

Request: How was `CS[C@@]1(C(=O)Nc2ccc3[nH]nc(-c4ccc(OC(C)C)nc4)c3c2)CCN(CC(=O)N2CC=C(c3ccc(-c4ncn(C)n4)cc3)CC2)C1` classified in this test?
Response: 0

Request: How was `CNCCOc1nc2c3cnccc3cc(-c3cc(OC)c(OC)c(OC)c3)c2c2ccncc12` classified in this test?
Response: 1

Request: How was `CON` classified in this test?
Response: 0

Request: How was CC(C)N(C[C@H]1O[C@@H](n2cnc3c(N)ncnc32)[C@H](O)[C@@H]1O)C1CC(CCc2nc3ccc(C(C)(C)C)cc3[nH]2)C1 (some centres not stated) classified in this test?
Response: 0

Request: How was `N#CC[C@H](C1CCCC1)n1cc(-c2ncnc3[nH]ccc23)cn1` classified in this test?
Response: 0

Request: How was `N#CC(C#N)=Cc1ccc(-c2ccc(-c3nc4ccccc4o3)cc2)o1` classified in this test?
Response: 0

Request: How was `Cc1cc2nc3c4ccccc4n(CCN(C)C)c3nc2cc1C` classified in this test?
Response: 0

Request: How was `C[C@@H]1CN2[C@H]3[C@@H]1CC[C@]31CCC(=O)O[C@]1(C)[C@@H]1CC[C@H]3CCC=C3[C@@H]12` classified in this test?
Response: 0

Request: How was `CCN(CC)c1ccc2nc3c4ccccc4c(=NC(=O)c4ccccc4-c4c5ccc(N(CC)CC)cc5[o+]c5cc(N(CC)CC)ccc45)cc-3oc2c1` classified in this test?
Response: 0
